- Target System: FXa (Homo sapiens)
- Sequence (P00742 235-488 limits assumed): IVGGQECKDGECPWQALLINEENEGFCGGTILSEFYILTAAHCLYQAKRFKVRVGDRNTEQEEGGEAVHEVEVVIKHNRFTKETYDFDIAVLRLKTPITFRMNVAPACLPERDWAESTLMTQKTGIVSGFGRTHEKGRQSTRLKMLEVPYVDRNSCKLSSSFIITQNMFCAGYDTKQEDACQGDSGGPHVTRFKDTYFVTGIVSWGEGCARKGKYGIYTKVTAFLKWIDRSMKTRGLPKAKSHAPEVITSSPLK
- Sequence (P00742 41-179 partner limits assumed): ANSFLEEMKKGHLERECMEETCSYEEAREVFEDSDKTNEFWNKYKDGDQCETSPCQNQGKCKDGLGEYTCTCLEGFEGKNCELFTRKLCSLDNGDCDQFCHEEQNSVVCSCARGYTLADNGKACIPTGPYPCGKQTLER
- Experimental Details: Selectivity: FXa inhibition, substrate Biophen CS-11(32)
- Assay type: biochemical
- Run Conditions: at 250 (μM)
Recorded FXa % (I) @ 250, one value per entry.
The reply should be a number in % I @ 250 ^, with the unit left off.

1. N=C(N)Nc1ccc(CC(NC(=O)OCCCc2cn(CCOCCOCCOCCNC(=O)CCCC[C@@H]3SC[C@@H]4NC(=O)N[C@@H]43)nn2)P(=O)(Oc2ccccc2)Oc2ccccc2)cc1.O=C(O)C(F)(F)F (stereo partly drawn) [Final compound 7]: 73

Find the recorded FXa % (I) @ 250 belonging to CC1=CC(C)=[N+]2C1=C(CCCCCCCn1cc(CCCOC(=O)NC(Cc3ccc(NC(=N)N)cc3)P(=O)(Oc3ccccc3)Oc3ccccc3)nn1)c1c(C)cc(C)n1[B-]2(F)F.O=C(O)C(F)(F)F (stereo not drawn) [Final compound 6] and report it.
19
